IC50 reference
Target: DCN1 (DCUND1) protein PONY domain (Homo sapiens (Human))
Sequence (Q96GG9 60-248): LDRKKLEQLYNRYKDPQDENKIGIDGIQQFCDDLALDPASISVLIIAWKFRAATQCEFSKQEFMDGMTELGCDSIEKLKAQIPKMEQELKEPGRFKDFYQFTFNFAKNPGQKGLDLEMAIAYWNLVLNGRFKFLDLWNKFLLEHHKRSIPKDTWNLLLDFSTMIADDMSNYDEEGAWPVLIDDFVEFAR
Test: TR-FRET assay, DCN1 binding with FAM-labeled probe
Conditions: 24 hr after treatment with compound; read-out: TR FRET IC50 24 hr
Procedure: A TR-FRET assay was performed to evaluate the ability of the compounds to bind the DCN-1 protein. The TR-FRET assay was designed following the Scott et al. protocol (Scott et al., Nat Chem Biol. 2017 August; 13(8): 850-857. Doi:10.1038/nchembio.2386). […] The TR-FRET ratio between Tb-DCN1 and the FAM-labeled probe was measured in a 384-well opti-plate (Perkin Elmer) using a plate reader (BMG) at 1, 5, and 24 hrs after treatment with compound (final DMSO concentration of 0.1%).

# compound, IC50
measured = [
    ("CCN1C(=O)[C@@H](NC(=O)c2cccc(C(F)(F)F)c2)[C@@H](c2ccc(F)nc2)c2c(C(=O)N3CCC[C@H]3C#N)nn(C3CC3)c21 (mixture of isomers)", "≤ 0.2 µM"),
    ("CCN1C(=O)[C@@H](NC(=O)c2cccc(C(F)(F)F)c2)[C@@H](c2ccc(F)cc2)c2c(C(=O)N3[C@H](C#N)C[C@H]4C[C@H]43)nn(C3CC3)c21", "≤ 0.2 µM"),
    ("CCN1C(=O)[C@H](NC(=O)c2cccc(C(F)(F)F)c2)[C@@H](c2ccc(F)cc2)c2c(C3(N(C)C#N)CC3)nn(-c3ccccc3)c21 (racemic)", "1 to 3 µM"),
    ("CCN1C(=O)[C@@H](NC(=O)c2cccc(C(F)(F)F)c2)[C@@H](c2ccc(F)cc2)c2c([C@@H](C)NC#N)nn(C3CCOCC3)c21", "≤ 0.2 µM"),
    ("CCN1C(=O)[C@@H](NC(=O)c2cccc(C(F)(F)F)c2)[C@@H](c2ccc(F)cc2)c2c(NS(=O)(=O)CCl)nn(-c3ccccc3)c21 (racemic)", "≤ 0.2 µM"),
]
